Assay: physchem
Conditions: pH 7.4 buffer
observation.type: log10 of solubility thermodynamic (log10 of the value in µM)
Plainly stated, the numbers are log10 of solubility thermodynamic given in µM.

Below are worked cases with known answers.
C#CCN(Cc1ccc2nc(C)nc(O)c2c1)c1ccc(S(=O)(=O)c2ccccc2)cc1 | -1.00
COc1ccc(N(C)C(=O)c2ccc3nc(-c4ccccc4)c(-c4ccccc4)nc3c2)cc1 | -0.15
CC(=O)OCCn1c(Sc2nc3cccc(Cl)c3s2)nc2c(N)ncnc21 | 0.60
CCN(CC)C(=O)c1ccc2[nH]c(-c3cc(C)cc(C)c3)c(CCNCCCCc3ccncc3)c2c1 | 2.94
Cc1nc(CSc2ccc(Cl)cc2)cc(N2CCOCC2)n1 | 2.03

Exercise: Entry FC(F)c1nc2ccccc2n1-c1nc(N2CCOCC2)nc(N2CCOCC2)n1 has what log10 of solubility thermodynamic?
Key: -0.15

Exercise: And CC(C)COc1cc(OC(C)C)cc(C(=O)Nc2ccc(C(=O)O)cn2)c1 ?
Key: 2.28

Exercise: Try this molecule too: COc1cc(N2CCNC(=O)C2)ccc1Nc1ncc(Cl)c(-c2cnc3ccccn23)n1
Key: 0.69

Exercise: // same read-out, input: COCCN(C)S(=O)(=O)c1ccc(Nc2nccc(-c3cnc(C)n3C)n2)cc1
Key: 1.75

Exercise: Then Cc1sc(N2CCN(C)CC2)nc1CCOc1ccc(C[C@H](Nc2ccccc2C(=O)c2ccccc2)C(=O)O)cc1 ?
Key: 1.99

Exercise: Now this one: O=C(NC1CCCCC1)C1CCCN(S(=O)(=O)c2cccs2)C1 (stereo not drawn)
Key: 0.62

Exercise: Same lookup for N#Cc1ccccc1C(=O)N1CCC(C(=O)c2ccc(F)cc2)CC1 , please.
Key: 2.13

Exercise: Now this one: CCCSc1nc(N2CCC[C@H](CC(=O)O)C2)ccc1C(=O)NC1CCCCC1
Key: 2.24

Exercise: COc1ccc([C@H](CC(=O)O)N2CCN(CCCc3ccc4c(n3)NCCC4)C2=O)cn1 , same question.
Key: 0.40

Exercise: Also, Cc1ccc(C)c(N(C)c2ccnc(Nc3cc(N4CCOCC4)cc(N4CCOCC4)c3)n2)c1 please.
Key: 0.77

Exercise: Then what about the molecule COc1cc(Nc2ncnc3cccc(O[C@H](C)C(=O)N4CCOCC4)c23)ccc1Oc1ccc(C)nc1 ?
Key: 1.57

Exercise: # repeat for Cn1cnc(-c2ccccc2)c1-c1nc2c(N)ncnc2s1
Key: 2.21

Data origin: ChEMBL document CHEMBL3301361
